// provenance: paper PMC8216263

Target: UniProt Q4U2R8
Sequence (Q4U2R8 whole entry): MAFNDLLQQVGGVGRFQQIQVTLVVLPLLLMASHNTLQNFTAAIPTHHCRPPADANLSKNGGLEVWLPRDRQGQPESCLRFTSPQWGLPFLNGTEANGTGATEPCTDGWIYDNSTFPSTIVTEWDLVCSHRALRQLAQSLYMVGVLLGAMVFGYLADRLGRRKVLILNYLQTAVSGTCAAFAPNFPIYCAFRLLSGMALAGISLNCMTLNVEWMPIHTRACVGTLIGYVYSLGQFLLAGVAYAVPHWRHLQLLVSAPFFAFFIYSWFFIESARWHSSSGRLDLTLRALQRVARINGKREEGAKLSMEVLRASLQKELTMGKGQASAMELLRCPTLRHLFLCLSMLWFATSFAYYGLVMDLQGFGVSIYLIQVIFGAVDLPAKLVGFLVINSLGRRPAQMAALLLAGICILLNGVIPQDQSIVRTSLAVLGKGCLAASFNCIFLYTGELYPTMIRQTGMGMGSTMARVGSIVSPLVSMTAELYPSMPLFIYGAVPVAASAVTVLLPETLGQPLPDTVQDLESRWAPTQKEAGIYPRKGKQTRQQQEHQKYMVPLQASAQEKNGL
Assay: Inhibition of OAT1-mediated 14C-PAH uptake in MDCK-OAT1 cells
Conditions: estimated; 14C-PAH 5 µM, MDCK-OAT1 cells
METRIC: pIC50
A value of pIC50 is the negative decimal logarithm of a concentration given in moles per litre.

Entry `O=C(O)c1cc(O)c(O)c(O)c1` ; pIC50 = 5.43

###

Assay: Single- and multiple-dose plasma pharmacokinetics of GA and PCA after oral RLQ in healthy subjects
Format: in vivo, human
Conditions: human, plasma, oral; single dose RLQ 8 g, male subjects n = 6; read-out: Cmax in men
Known Cmax of a selection of compounds
Please append the unit to your numeric answer.

>>> result("O=C(O)c1ccc(O)c(O)c1 [PCA, protocatechuic acid]")
"4.54 ng/mL"

Now for the compound whose Cmax we want.
Entry O=C(O)c1cc(O)c(O)c(O)c1 [GA, gallic acid] ; Cmax = 102 ng/mL
